koff: recorded values
target: T1, cynomolgus monkey (cyno) TSLP (cynomolgus monkey, UniProt A0A7N9CAT7 29-159); experiment: SPR
T1 construct: also called cTSLP; cynomolgus TSLP
T1 sequence (A0A7N9CAT7 entry or part of it): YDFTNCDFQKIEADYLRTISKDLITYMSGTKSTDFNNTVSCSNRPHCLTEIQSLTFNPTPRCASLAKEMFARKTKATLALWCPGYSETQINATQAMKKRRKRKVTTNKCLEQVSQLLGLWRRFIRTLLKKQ
Give just the number in s⁻¹; leave the unit off.

// recorded koff for BDG38.128 (antibody, V domains shown, IgG1) VH: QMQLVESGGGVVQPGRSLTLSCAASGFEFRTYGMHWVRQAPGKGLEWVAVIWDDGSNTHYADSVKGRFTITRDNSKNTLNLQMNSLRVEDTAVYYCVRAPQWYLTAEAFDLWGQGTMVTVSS VL: SYILTQPPSVSVAPGETATITCGGNLIGAKLVHWYQQKPGQAPVLVIYDDSDRPSRIPERFSGSNSGNTATLTISDVEEGDEADYYCQVWDYYADTMVFGGGTKLTVL : 7.62e-08

// recorded koff for BDG38.125 (antibody, V domains shown, IgG1) VH: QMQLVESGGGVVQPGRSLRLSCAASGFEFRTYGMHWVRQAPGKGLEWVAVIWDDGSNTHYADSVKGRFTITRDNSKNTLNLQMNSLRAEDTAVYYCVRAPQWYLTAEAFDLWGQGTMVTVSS VL: SYVLTQPPSVSVAPGETATITCGGNLIGARLVHWYQQKPGQAPVLVIYDDSDRPSRIPERFSGSNIGNTATLTIERVEEGDEADYYCQVWDYSSDHMVFGGGTKLTVL : 0.000119

// recorded koff for BDG38.092 (antibody, V domains shown, IgG1) VH: QMQLVESGGGVVQPGRSLTLSCAASGFEFRTYGMHWVRQAPGKGLEWLAVIWDDGSNTHYADSVKGRFTITRDNSKNTLNLQMNSLRVEDTAVYYCVRAPQWYLTAEAFDLWGQGTMVTVSS VL: SYVLTQPPSVSVAPGETATITCGGNLIGARLVHWYQQKPGQAPVLVIYDDSDRPSRIPERFSGSNIGNTATLTISDVEEGDEADYYCQVWDYYSDHMVFGGGTKLTVL : 1.72e-05
